Cited source for all entries: patent US20250340557A1

target system: human mPGES-1 (Homo sapiens, UniProt O14684)
Construct: made in house; host or cells: COS-1 cells (transient transfection; microsomal fraction used as enzyme)
Sequence (O14684 whole entry): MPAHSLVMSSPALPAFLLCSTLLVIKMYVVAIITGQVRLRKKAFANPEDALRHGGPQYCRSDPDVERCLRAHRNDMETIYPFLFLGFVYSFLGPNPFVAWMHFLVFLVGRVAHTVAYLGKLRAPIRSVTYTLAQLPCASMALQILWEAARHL
method summary: Test for mPGES-1 inhibitory activity (microsomal enzyme, PGE2 EIA)
Format: biochemical
test parameters: microsomes of COS-1 cells transfected with human mPGES-1 cDNA; PGH2 1 μM; 4° C., 4 minutes; PGE2 by EIA; read-out: h mPGES1 IC50
quantity kind: IC50 (µM)

Below: 2 compounds and their reported IC50.
## Task Give IC50 for the following compound: Cc1nc(-c2c(C(F)(F)F)ccc(CNC(=O)[C@H]3C[C@H](OCc4ccc(F)cc4F)C3)c2F)[nH]c(=O)c1F [Example 218]
## Result 0.013

## Task Provide IC50 value for the following compound: Cc1cc(=O)[nH]c(-c2c(C(F)(F)F)ccc(CNC(=O)[C@H]3C[C@H](OCc4cccc(F)c4F)C3)c2F)n1 [Example 189]
## Result 0.013

(a) CCc1cc(=O)[nH]c(-c2c(C(F)(F)F)ccc(CNC(=O)[C@H]3C[C@H](OCc4ccccc4C(F)(F)F)C3)c2F)n1 [Example 198]
(b) Cc1nc(-c2c(C(F)(F)F)ccc(CNC(=O)[C@H]3C[C@H](OCc4ccc(C(F)(F)F)cc4)C3)c2F)[nH]c(=O)c1F [Example 217]
## Task Which gives the smaller IC50 number: a or b ? Write down the label of the entry you select.
## Result a
